// data source = patent US7098199B2

biological target: oestrone sulphatase (Homo sapiens); conditions: concentration tested 10 mM (so in the source)
Sequence (P08842 22-583): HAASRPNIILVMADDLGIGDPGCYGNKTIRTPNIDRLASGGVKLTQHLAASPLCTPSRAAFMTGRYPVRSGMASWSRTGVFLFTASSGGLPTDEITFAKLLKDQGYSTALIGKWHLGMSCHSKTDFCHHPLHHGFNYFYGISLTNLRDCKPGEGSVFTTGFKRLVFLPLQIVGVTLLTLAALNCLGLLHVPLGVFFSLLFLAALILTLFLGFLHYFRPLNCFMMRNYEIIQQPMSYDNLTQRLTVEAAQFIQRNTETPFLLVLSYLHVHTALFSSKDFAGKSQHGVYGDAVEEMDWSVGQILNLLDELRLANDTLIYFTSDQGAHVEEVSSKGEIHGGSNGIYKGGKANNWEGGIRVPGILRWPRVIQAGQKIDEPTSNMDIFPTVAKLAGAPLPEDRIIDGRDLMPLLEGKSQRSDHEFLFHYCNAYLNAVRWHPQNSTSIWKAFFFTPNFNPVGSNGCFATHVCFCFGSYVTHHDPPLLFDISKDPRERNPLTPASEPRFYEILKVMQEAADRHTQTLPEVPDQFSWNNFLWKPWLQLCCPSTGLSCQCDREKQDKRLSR

compound: CCCc1cc2c(cc1OS(N)(=O)=O)CC[C@@H]1[C@@H]2CC[C@]2(C)C(=O)CC[C@@H]12 [2-n-propyl EMATE]
tgt: oestrone sulphatase (Homo sapiens)
% Inhibition (Mean) Placental Microsomes, %: 43.2
//
compound: CCCc1c(OS(N)(=O)=O)ccc2c1CC[C@@H]1[C@@H]2CC[C@]2(C)C(=O)CC[C@@H]12 [4-n-propyl EMATE]
tgt: oestrone sulphatase (Homo sapiens)
% Inhibition (Mean) Placental Microsomes, %: 10.2
//
compound: C[C@@]12CCC[C@H]1[C@@H]1CCc3cc(OS(N)(=O)=O)ccc3[C@H]1CC2 [NOMATE, 17-deoxy oestrone-3-O-sulphamate]
tgt: oestrone sulphatase (Homo sapiens)
% Inhibition (Mean) Placental Microsomes, %: 99.5
//
compound: COc1cc2c(cc1OS(N)(=O)=O)CC[C@@H]1[C@@H]2CC[C@]2(C)C(=O)CC[C@@H]12 [2-methoxy EMATE]
tgt: oestrone sulphatase (Homo sapiens)
% Inhibition (Mean) Placental Microsomes, %: 99.0
//
compound: C=CCc1cc2c(cc1OS(N)(=O)=O)CC[C@@H]1[C@@H]2CC[C@]2(C)C(=O)CC[C@@H]12 [2-allyl EMATE]
tgt: oestrone sulphatase (Homo sapiens)
% Inhibition (Mean) Placental Microsomes, %: 65.4
//
compound: C=CCc1c(OS(N)(=O)=O)ccc2c1CC[C@@H]1[C@@H]2CC[C@]2(C)C(=O)CC[C@@H]12 [4-allyl EMATE]
tgt: oestrone sulphatase (Homo sapiens)
% Inhibition (Mean) Placental Microsomes, %: 54.2
